Origin of values: ChEMBL document CHEMBL5463729

Molecular target: Oxytocin receptor (Homo sapiens, UniProt P30559)
Sequence (P30559 whole entry): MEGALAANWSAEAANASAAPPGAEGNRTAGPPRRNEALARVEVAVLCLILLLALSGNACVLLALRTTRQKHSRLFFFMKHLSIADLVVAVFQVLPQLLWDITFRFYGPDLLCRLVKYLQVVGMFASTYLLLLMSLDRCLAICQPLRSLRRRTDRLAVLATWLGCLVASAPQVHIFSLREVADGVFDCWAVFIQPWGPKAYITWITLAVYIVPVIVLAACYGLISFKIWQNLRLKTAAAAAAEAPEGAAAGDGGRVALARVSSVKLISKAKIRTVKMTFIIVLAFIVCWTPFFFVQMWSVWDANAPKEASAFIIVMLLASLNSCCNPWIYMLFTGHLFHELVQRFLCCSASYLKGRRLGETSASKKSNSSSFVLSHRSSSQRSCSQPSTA
Assay: Inhibition of Oxytocin at 1 µM in the Eurofins-Panlabs radioligand binding assay (Eurofins_assay_260900)
Parameters: ligand concentration 0.8 nM, non-specific ligand with concentration 1 µM Oxytocin, incubation time 2 h, incubation temperature 25°C
measurement label: Ki (nM)

compound	system tested	result number
C[C@H](O)c1nc(Cn2nc(-c3ccc(Cl)cc3)n(C[C@H](O)C(F)(F)F)c2=O)nn1-c1cccc(Cl)c1 [PECAVAPTAN]	Oxytocin receptor (Homo sapiens, UniProt P30559)	5.06

###

Biological target: hERG (KCNH2) (Homo sapiens)
Sequence (Q12809 whole entry): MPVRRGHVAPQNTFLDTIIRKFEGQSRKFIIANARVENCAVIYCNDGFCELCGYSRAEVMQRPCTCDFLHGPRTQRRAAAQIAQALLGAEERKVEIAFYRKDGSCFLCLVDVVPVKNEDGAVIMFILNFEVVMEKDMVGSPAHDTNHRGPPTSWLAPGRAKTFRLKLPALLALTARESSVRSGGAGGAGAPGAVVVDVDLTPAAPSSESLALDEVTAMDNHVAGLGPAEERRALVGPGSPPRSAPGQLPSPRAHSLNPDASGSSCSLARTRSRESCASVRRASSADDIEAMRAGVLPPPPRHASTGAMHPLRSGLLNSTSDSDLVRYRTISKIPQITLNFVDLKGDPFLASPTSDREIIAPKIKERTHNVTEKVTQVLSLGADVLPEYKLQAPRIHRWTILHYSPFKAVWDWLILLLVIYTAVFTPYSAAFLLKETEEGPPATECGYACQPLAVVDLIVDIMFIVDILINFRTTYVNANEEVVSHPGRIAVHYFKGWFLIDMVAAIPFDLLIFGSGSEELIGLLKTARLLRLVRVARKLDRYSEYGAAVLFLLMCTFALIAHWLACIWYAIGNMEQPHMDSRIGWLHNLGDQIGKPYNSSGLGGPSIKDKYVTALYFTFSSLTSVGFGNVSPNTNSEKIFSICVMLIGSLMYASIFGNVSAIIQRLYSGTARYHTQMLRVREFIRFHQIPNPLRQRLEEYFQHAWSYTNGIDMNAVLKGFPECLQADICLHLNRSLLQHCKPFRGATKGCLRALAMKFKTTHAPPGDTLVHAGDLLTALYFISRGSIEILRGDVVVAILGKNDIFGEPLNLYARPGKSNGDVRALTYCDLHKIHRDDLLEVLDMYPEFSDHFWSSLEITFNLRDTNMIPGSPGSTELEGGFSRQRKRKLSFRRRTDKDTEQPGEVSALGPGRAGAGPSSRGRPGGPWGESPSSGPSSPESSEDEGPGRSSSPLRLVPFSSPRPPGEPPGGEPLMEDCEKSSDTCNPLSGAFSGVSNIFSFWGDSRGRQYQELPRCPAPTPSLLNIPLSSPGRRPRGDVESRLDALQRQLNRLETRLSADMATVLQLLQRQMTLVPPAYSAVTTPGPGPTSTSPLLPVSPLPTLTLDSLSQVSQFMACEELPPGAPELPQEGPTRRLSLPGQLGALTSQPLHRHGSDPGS
Assay: Inhibition of Potassium Channel hERG at 10 µM in the Eurofins-Panlabs radioligand binding assay (Eurofins_assay_265900)
Design: ligand concentration 1.5 nM, non-specific ligand with concentration Astemizole, incubation time 60 min, incubation temperature 25 °C
Details: HEK-293 cells expressing human recombinant hERG, probe [3H] Astemizole, compound concentration 10 uM
measurement label: inhibition at 60 min, 10 µM

chemical smiles	measurement label	result
C[C@H](O)c1nc(Cn2nc(-c3ccc(Cl)cc3)n(C[C@H](O)C(F)(F)F)c2=O)nn1-c1cccc(Cl)c1	inhibition at 60 min, 10 µM	-3% (not active)
